experiment: NCI Yeast Anticancer Drug Screen. Data for the mec2-1 strain (AID 157); conditions: S. cerevisiae mec2-1 strain, at 50.0 µM
Compounds without any hit were thinned out: in the full panel of roughly 79,000, 15% have a hit. Calls of active or inactive are those of the source. Cut-off read from the data, not from the text of the source: active = growth inhibition above about 70%; inactive = the rest.
Possible outcomes: true for active, false for inactive

molecule: Cn1cnc(N)c1C(N)=S
classification: false

molecule: CC12CCC=CC1=CC(=O)CC2 (centres undefined)
classification: false

molecule: Cc1ccc(S(=O)(=O)Nc2ccccc2)cc1
classification: false

molecule: N#CC(c1cc2c(cc1Br)OCO2)N1CCOCC1 (centres undefined)
classification: false

molecule: CCOC(=O)C(Cc1c[nH]c2ccccc12)NC(C)=O (centres undefined)
classification: false

molecule: O=C(OCC1OC(OC(=O)N(c2ccccc2)c2ccccc2)C(OS(=O)(=O)c2ccc([N+](=O)[O-])cc2)C1OC(=O)c1ccccc1)c1ccccc1 (centres undefined)
classification: false

molecule: Cc1nn(C)c(NC(=O)c2ccccc2O)c1SC#N
classification: false

molecule: CC(C)CC(N)C(=O)NC(Cc1cc2ccccc2[nH]1)C(=O)O (centres undefined)
classification: false

molecule: C=CCNC(=S)NNC(=S)NCC=C
classification: false

molecule: O=C(OC(c1ccc(Cl)cc1)c1ccc(Cl)cc1)C(c1ccc(Cl)cc1)c1ccc(Cl)cc1
classification: false

molecule: Cc1ccccc1NC(=O)CC(=O)NNC(Sc1ccccc1)c1cc(N=Nc2ccc(Br)cc2)ccc1O (centres undefined)
classification: false

molecule: Cc1ccc(OC/C=C/CS(=O)(=O)c2ccc(C)cc2)cc1
classification: false

molecule: COC(=O)c1ccc(S(=O)(=O)O)cc1[N+](=O)[O-]
classification: false

molecule: CC1C(=O)OC2CC[N+]3(C(=O)C(F)(F)F)CC4OC4(COC(=O)C(C)(O)C1(C)O)C23 (centres undefined)
classification: false

molecule: NS(=O)(=O)c1cc2c(cc1Cl)NC(Cc1ccccc1)NS2(=O)=O (centres undefined)
classification: false

molecule: O=C1c2ccccc2-c2nc(-c3ccccc3)cc3c2c1nc1ccccc13
classification: false

molecule: CC1(C)C2CC(=O)C1(C)C(OCc1ccccc1)C2 (centres undefined)
classification: false

molecule: CCN(CC)CCOC(=O)c1ccc(N=Nc2cc(C(=O)O)ccc2O)cc1
classification: false

molecule: CN(C)c1ccc([N+](=O)[O-])cc1
classification: false

molecule: OC1CCCNC1 (centres undefined)
classification: false

molecule: CCOCCOC(=O)c1ccc(C(N)=NC)cc1
classification: false

molecule: CCOC(=O)C(=O)N=Nc1nc2c(O)c3ccccc3c(O)c2s1
classification: true

molecule: Cc1[nH]c(=O)nc(CC(O)(c2ccccc2)c2ccccc2)c1-c1ccccc1
classification: false

molecule: CCOC(=O)C(NC(C)=O)C(C)O (centres undefined)
classification: false

###

Reported growth inhibition is given for each of the following molecules.
test: NCI Yeast Anticancer Drug Screen. Data for the bub3 strain (AID 167); settings: S. cerevisiae bub3 mutant strain, at 50.0 µM, active compounds read high
Compounds without any hit were thinned out: in the full panel of roughly 79,000, 15% have a hit.

molecule: O=C(c1ccccc1)C(c1ccccc1)N(CCO)CCO (stereo unspecified)
growth inhibition, %: 20.6
//
molecule: C=C(C)c1nc(C#N)c(N)o1
growth inhibition, %: -37.8
//
molecule: N/N=C(/Cc1ccccc1)NNO
growth inhibition, %: 12.8
//
molecule: O=C(COc1cccc(Cl)c1)Nc1cccc(S(=O)(=O)O)c1 (tested in a mixture with another compound)
growth inhibition, %: 2
//
molecule: CCOc1ccccc1C(=O)OCCCc1ccccc1
growth inhibition, %: 25.2
//
molecule: CCCC(=O)Oc1ccccc1C1CCCCC1
growth inhibition, %: 7.35

This collection of values is drawn from PubChem BioAssay (NCI).
